Target: UniProt Q13237
Sequence (Q13237 whole entry, looked up): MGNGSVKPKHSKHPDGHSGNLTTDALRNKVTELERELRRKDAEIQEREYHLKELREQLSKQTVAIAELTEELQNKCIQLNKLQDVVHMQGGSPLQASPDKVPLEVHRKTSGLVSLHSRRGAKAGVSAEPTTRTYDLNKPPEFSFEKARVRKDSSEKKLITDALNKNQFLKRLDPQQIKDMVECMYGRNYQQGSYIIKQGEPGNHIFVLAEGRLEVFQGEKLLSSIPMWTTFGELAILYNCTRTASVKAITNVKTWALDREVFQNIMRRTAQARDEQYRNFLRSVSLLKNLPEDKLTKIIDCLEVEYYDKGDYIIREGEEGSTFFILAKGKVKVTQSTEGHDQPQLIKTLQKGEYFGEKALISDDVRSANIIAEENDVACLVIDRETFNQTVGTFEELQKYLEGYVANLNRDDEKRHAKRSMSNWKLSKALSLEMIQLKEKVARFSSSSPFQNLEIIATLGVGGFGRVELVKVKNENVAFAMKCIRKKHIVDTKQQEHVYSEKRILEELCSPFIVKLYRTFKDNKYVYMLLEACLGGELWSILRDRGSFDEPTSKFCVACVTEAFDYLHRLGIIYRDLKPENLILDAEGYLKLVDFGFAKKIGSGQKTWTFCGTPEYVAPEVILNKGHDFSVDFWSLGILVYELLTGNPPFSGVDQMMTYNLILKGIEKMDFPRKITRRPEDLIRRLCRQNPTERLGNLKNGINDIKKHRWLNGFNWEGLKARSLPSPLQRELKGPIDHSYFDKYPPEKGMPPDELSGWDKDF
Test: KINOMEscan competition binding
Conditions: compound 10.0 µM
Measured kinase still bound, per cent of control of individual entries
Just the number please, in %, no unit attached.

Reference set (3 entries):
| compound | endpoint | result-number |
| --- | --- | --- |
| O=C1Nc2ccc(I)cc2/C1=C/c1cc(Br)c(O)c(Br)c1 | kinase still bound, per cent of control | 83 |
| C=CC(=O)Nc1cccc(Nc2nc(N[C@H]3CC[C@H](N(C)C)CC3)nc3c2ncn3C(C)C)c1 | kinase still bound, per cent of control | 96 |
| OCCCNc1cc(-c2ccnc(Nc3cccc(Cl)c3)n2)ccn1 | kinase still bound, per cent of control | 100 |

kinase still bound, per cent of control reported for this compound COc1cc(C(=O)NC2CCN(C)CC2)ccc1Nc1ncc2c(n1)N(C1CCCC1)C(C)CC(=O)N2C (stereo unspecified) : 100

# kinase still bound, per cent of control of CCOc1cc2ncc(C#N)c(Nc3ccc(OCc4ccccn4)c(Cl)c3)c2cc1NC(=O)/C=C/CN(C)C = 92

The recorded kinase still bound, per cent of control for entry Cn1c(=O)n(-c2ccc(C(C)(C)C#N)cc2)c2c3cc(-c4cnc5ccccc5c4)ccc3ncc21 equals 100
